Reference for the values: ChEMBL document CHEMBL5365482

Test: Apparent permeability of the compound across gastrointestinal tract in PBS buffer at pH 6.2 at 200 uM by PAMPA analysis
Type: ADME, tissue-based
property: Papp at 200 µM

Prompt: Item under review: Cc1cc(=O)n(-c2ccccc2)n1C [ANTIPYRINE] . Reported Papp at 200 µM?
Completion: < 1 ×10⁻⁶ cm/s

###

Test: Apparent permeability of the compound across gastrointestinal tract in PBS buffer at pH 5 at 200 uM by PAMPA analysis
Format: ADME, tissue-based
property: Papp at 200 µM

Prompt: Can you share its Papp at 200 µM? I mean this compound: Cc1cc(=O)n(-c2ccccc2)n1C [ANTIPYRINE]
Completion: < 1 ×10⁻⁶ cm/s

###

Experiment: Apparent permeability of the compound across gastrointestinal tract in PBS buffer at pH 7.4 at 50 uM by PAMPA analysis
Type: ADME, tissue-based
property: Papp at 50 µM (×10⁻⁶ cm/s)
Provide the reading as a plain figure in ×10⁻⁶ cm/s.

Prompt: Suppose we examine the compound NC(=O)N1c2ccccc2C=Cc2ccccc21 [CARBAMAZEPINE] ; what Papp at 50 µM value has been reported?
Completion: 152
